pKi: −log10 of the molar value.
Here's a roundup of pKi values tested on Sodium-dependent serotonin transporter (Homo sapiens), taken from various published works.

Before answering, review these 10 worked examples.
{"Compound": "CC(C)C[C@@H](Oc1ccc(Cl)cc1Cl)[C@H]1CCNC1", "pKi": "≥ 8.00"}
{"Compound": "CCCC[C@@H](Oc1cc(F)c(F)cc1F)[C@H]1CCNC1", "pKi": "≥ 8.00"}
{"Compound": "Fc1cccc(O[C@H](C2CCCCC2)[C@H]2CCNC2)c1Cl", "pKi": "≥ 8.00"}
{"Compound": "Cc1cc(Cl)ccc1O[C@H](C1CC1)[C@H]1CCNC1", "pKi": "≥ 8.00"}
{"Compound": "COc1ccc([C@H]2CN3CCC[C@H]3c3cc(OCCCN4CCOCC4)ccc32)cc1 (relative stereo)", "pKi": 8.15}
{"Compound": "CC[C@H](Oc1ccc(Cl)c(F)c1Cl)[C@H]1CCNC1", "pKi": "≥ 8.00"}
{"Compound": "Clc1cccc(Cl)c1O[C@@H](C1CCCCC1)[C@H]1CCNC1", "pKi": "≥ 8.00"}
{"Compound": "CCC[C@@H](Oc1ccc(Cl)cc1)[C@H]1CCNC1", "pKi": "≥ 8.00"}
{"Compound": "CC[C@H](Oc1c(F)ccc(Cl)c1F)[C@H]1CCNC1", "pKi": "≥ 8.00"}
{"Compound": "CN(C)CCC(Oc1ccc(F)cc1)c1ccc(OCCCN2CCCCC2)cc1 (centres unmarked)", "pKi": 7.34}

Please state pKi for every compound in the list that follows.
1. Fc1ccc(F)c(-c2ccccc2CO[C@H]2CCNC2)c1
2. CC(=O)c1ccc(-c2ccccc2CO[C@H]2CCNC2)cc1

[reply]
[6.68, 6.04]

Please state pKi for every compound in the list that follows.
1. CCCC[C@@H](Oc1cccc(Cl)c1Cl)[C@H]1CCNC1
2. CC[C@H](Oc1c(F)ccc(OC)c1Cl)[C@H]1CCNC1
3. COc1ccc(C2CN(C)Cc3cc(OCCCN4CCCCC4CO)ccc32)cc1 (centres unmarked)
4. CC[C@@H](Oc1cccc(Cl)c1C(F)(F)F)[C@@H]1CCNC1
5. CC(C)CC(Oc1ccc(Cl)cc1)C1CCNC1 (centres unmarked)

[reply]
≥ 8.00
≥ 8.00
8.52
≥ 8.00
≥ 8.00

---

pKi: −log10 of the molar value.
Here's a roundup of pKi values tested on Sodium-dependent serotonin transporter (Homo sapiens, UniProt P31645), taken from various published works.

{"Molecule": "CC(C)[C@@H](Oc1cccc(F)c1Cl)[C@H]1CCNC1", "Test System": "Sodium-dependent serotonin transporter (Homo sapiens, UniProt P31645)", "Reported Endpoint": "pKi", "Result": "≥ 8.00"}

Please state pKi for every molecule in the list that follows.
1. Cc1cccc(O[C@@H](C2CC2)[C@H]2CCNC2)c1C
2. Fc1cc(Cl)cc(F)c1O[C@H](C1CC1)[C@H]1CCNC1
3. CC[C@H](Oc1ccc(F)c(OC)c1F)[C@H]1CCNC1
4. c1ccc(CC2CNCCN2c2ccc3cnccc3c2)cc1 (stereo not drawn)
5. CC[C@@H](Oc1c(F)ccc(Cl)c1Cl)[C@H]1CCNC1
6. N#Cc1ccc(Oc2ncccc2OC[C@H]2CCCNC2)cc1C#N
7. CC(=O)c1ccc(-c2ccc(F)cc2CO[C@H]2CCNC2)cc1
8. FC(F)(F)Oc1cccc(Oc2ncccc2OC[C@H]2CCCNC2)c1.O=C(O)/C=C/C(=O)O

[reply]
1. ≥ 8.00
2. ≥ 8.00
3. ≥ 8.00
4. ~9.87
5. ≥ 8.00
6. 5.40
7. 6.35
8. 5.01

Please state pKi for every molecule in the list that follows.
1. COc1cc(Cl)ccc1O[C@@H](CC(C)C)[C@H]1CCNC1
2. CCCC[C@@H](Oc1ccc(Cl)cc1C(F)(F)F)[C@H]1CCNC1
3. COc1ccc(C2CN(C)Cc3cc(OCCCN4CCN(C(=O)C5CCC5)CC4)ccc32)cc1 (stereo not drawn)

[reply]
≥ 8.00
≥ 8.00
7.82
